Give Phytotoxicity (%) for every item shown.
# Test system: Tomato plants
# assay.method.text: Phytotoxicity on treated tomato plants (Example 10, comparative)
# Format: in vivo
# condition: 250 ppm a.i.
# Text: Visual surveys were effected 7 days after each infection/treatment, analyzing 10 plants per plot, analyzing the percentage of leaf surface affected.
Numeric answer only, unit % assumed.

What Phytotoxicity (%) value was documented for this molecule, O=C(O)CC(O)C(=O)O.[Cu] (stereo not shown) [Copper malate] ?
20

Also O=C([O-])C(O)C(O)C(=O)[O-].[Cu+2] (stereo not shown) [Copper tartrate] , if possible.
0

Next molecule up: O=C(O)CCC(=O)O.[Cu] [Copper succinate]
0

Again, but for O=C(O)CCCC(=O)O.[Cu] [Copper glutarate]
0
